Assignment: determine reported inhibition at 10 µM for the given compounds.
- System: SF-295
- Measurement protocol: Growth inhibition of human SF295 cells at 10 uM relative to control
- Assay type: functional
The reply should contain only the number, in %.

Problem: I am curious: what inhibition at 10 µM value has been reported for Cc1c2c(nc3cc4c(cc13)OCO4)CC(C(F)(F)F)CC2=O (configuration not stated) ?
Solution: 32

Problem: Queued: O=C1CC(C(F)(F)F)Cc2nc3c(Br)cc(Br)cc3cc21 (configuration not stated)
Solution: 61

Problem: Queued: O=C1CC(C(F)(F)F)Cc2nc3ccc(Cl)cc3c(-c3ccccc3)c21 (configuration not stated)
Solution: 48

###

- System: A549
- Measurement protocol: Growth inhibition of human A549 cells at 10 uM relative to control
- Assay type: functional
Assignment: determine reported inhibition at 10 µM for the given compounds.
The reply should contain only the number, in %.

Problem: Lab request: please report inhibition at 10 µM under test system A549 for O=C1CC(C(F)(F)F)Cc2nc3ccc(Cl)cc3c(-c3ccccc3)c21 (stereo unspecified)
Solution: 80

Problem: Queued: Cc1c2c(nc3cc4c(cc13)OCO4)CC(C(F)(F)F)CC2=O (stereo unspecified)
Solution: 67

Problem: Queued: O=C1CC(C(F)(F)F)Cc2nc3ccc(Cl)cc3c(-c3ccccc3Cl)c21 (stereo unspecified)
Solution: 50

###

- System: Jurkat
- Measurement protocol: Antiproliferative activity against human Jurkat cells after 72 hrs by Alamar Blue assay
- Assay type: functional, cell-based
Assignment: determine reported pIC50 for the given compounds.
// returns pIC50 (minus log10 of molar concentration), number only

Problem: I am curious: what pIC50 value has been reported for O=C1CC(C(F)(F)F)Cc2nc3ccc(Cl)cc3c(-c3ccccc3)c21 (centres undefined) ?
Solution: 4.91

Problem: Queued: O=C1CC(C(F)(F)F)Cc2nc3ccc(Cl)cc3c(-c3ccccc3Cl)c21 (centres undefined)
Solution: 4.06

Problem: Queued: O=C1CC(C(F)(F)F)Cc2nc3ccc(Br)cc3c(-c3ccccc3F)c21 (centres undefined)
Solution: 4.94

Problem: Queued: Cc1c2c(nc3ccc(Cl)cc13)CC(C(F)(F)F)CC2=O (centres undefined)
Solution: 5.29

###

Assignment: determine reported inhibition at 10 µM for the given compounds.
- Tested on: MOLT-4
- Measurement protocol: Growth inhibition of human MOLT4 cells at 10 uM relative to control
- Assay type: functional
The reply should contain only the number, in %.

Problem: I am curious: what inhibition at 10 µM value has been reported for O=C1CC(C(F)(F)F)Cc2nc3c(Br)cc(Br)cc3cc21 (stereo unspecified) ?
Solution: 31

Problem: Queued: O=C1CC(C(F)(F)F)Cc2nc3ccc(Cl)cc3c(-c3ccccc3Cl)c21 (stereo unspecified)
Solution: 46

Problem: Queued: Cc1c2c(nc3ccc(Cl)cc13)CC(C(F)(F)F)CC2=O (stereo unspecified)
Solution: 95

###

Assignment: determine reported inhibition at 10 µM for the given molecules.
- System: T47D
- Measurement protocol: Growth inhibition of human T47D cells at 10 uM relative to control
- Type: functional

Problem: I am curious: what inhibition at 10 µM value has been reported for O=C1CC(C(F)(F)F)Cc2nc3ccc(Cl)cc3c(-c3ccccc3)c21 (configuration not stated) ?
Solution: < 20%

Problem: Queued: Cc1c2c(nc3ccc(Cl)cc13)CC(C(F)(F)F)CC2=O (configuration not stated)
Solution: 43%

Problem: Queued: Cc1c2c(nc3cc4c(cc13)OCO4)CC(C(F)(F)F)CC2=O (configuration not stated)
Solution: < 20%

Problem: Queued: O=C1CC(C(F)(F)F)Cc2nc3ccc(Cl)cc3c(-c3ccccc3Cl)c21 (configuration not stated)
Solution: < 20%

Problem: Queued: O=C1CC(C(F)(F)F)Cc2nc3c(Br)cc(Br)cc3cc21 (configuration not stated)
Solution: 66%

Problem: Queued: O=C1CC(C(F)(F)F)Cc2nc3ccc(Br)cc3c(-c3ccccc3F)c21 (configuration not stated)
Solution: < 20%

Problem: Queued: O=C1CC(C(F)(F)F)Cc2nc3ccccc3c(-c3ccccc3)c21 (configuration not stated)
Solution: < 20%
